The following compounds are listed with their measured pIC50 values.
Target: ROS1 (Homo sapiens)
Construct: purchased Carna Biosciences 08-163
Sequence (P08922 28-2347): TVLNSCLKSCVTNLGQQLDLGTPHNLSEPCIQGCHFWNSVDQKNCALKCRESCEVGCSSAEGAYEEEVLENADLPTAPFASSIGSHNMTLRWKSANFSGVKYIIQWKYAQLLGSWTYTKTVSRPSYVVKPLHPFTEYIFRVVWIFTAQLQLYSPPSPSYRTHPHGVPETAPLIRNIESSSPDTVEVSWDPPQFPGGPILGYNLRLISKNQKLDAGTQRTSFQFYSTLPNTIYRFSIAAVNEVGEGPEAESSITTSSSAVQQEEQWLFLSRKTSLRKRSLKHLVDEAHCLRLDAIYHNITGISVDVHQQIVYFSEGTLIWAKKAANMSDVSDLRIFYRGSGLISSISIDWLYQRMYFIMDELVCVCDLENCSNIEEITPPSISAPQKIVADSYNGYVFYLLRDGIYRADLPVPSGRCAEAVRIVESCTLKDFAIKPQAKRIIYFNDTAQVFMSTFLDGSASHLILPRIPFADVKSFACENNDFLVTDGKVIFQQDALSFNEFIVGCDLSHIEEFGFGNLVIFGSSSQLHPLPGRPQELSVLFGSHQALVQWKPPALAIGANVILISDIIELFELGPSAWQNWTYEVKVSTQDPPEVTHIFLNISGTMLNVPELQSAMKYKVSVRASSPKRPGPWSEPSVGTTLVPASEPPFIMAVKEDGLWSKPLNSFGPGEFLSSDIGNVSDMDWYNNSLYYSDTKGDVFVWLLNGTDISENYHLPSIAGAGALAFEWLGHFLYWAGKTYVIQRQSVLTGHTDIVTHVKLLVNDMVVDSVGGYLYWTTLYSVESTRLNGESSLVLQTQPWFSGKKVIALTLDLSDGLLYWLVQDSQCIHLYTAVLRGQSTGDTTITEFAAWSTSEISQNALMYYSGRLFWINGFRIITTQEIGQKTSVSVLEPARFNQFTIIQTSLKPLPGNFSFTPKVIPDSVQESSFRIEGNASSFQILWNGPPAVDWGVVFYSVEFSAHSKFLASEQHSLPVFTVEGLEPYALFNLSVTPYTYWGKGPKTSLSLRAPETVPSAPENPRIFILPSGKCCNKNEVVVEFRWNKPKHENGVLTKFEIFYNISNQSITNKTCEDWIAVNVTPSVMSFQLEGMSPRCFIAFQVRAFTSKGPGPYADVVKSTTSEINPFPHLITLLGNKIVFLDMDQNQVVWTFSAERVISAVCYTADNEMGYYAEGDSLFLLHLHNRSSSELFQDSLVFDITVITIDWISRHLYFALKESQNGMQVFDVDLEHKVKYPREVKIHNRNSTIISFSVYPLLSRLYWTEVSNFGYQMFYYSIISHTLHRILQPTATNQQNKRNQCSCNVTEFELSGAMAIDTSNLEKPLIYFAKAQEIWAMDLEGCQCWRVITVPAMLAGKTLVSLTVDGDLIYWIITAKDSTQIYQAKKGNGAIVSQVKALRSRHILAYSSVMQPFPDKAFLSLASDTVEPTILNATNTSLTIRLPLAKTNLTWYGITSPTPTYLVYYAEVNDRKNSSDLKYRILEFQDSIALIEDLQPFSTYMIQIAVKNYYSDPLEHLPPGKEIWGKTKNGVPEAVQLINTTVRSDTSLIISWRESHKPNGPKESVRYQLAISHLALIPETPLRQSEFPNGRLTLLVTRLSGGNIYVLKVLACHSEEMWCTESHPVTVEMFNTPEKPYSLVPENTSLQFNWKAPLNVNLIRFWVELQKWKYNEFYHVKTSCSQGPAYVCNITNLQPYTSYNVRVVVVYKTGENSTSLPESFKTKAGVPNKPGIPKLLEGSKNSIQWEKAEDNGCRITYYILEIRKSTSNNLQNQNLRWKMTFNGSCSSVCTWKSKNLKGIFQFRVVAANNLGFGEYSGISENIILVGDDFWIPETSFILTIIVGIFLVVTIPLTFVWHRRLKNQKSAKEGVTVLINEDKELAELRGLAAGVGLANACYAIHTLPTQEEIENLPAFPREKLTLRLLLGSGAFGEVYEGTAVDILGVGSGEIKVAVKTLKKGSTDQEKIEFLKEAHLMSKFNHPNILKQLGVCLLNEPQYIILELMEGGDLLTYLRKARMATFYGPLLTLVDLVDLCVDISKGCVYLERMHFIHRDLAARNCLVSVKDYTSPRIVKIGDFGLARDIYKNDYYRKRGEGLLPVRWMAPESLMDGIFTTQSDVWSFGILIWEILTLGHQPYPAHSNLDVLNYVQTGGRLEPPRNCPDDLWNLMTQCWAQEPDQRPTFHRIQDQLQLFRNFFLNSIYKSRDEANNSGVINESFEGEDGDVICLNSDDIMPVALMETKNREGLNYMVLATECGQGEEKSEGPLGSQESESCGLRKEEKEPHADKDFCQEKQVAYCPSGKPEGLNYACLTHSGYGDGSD
Assay: ROS1 kinase inhibitory activity evaluation (mobility shift, EZ Reader II)
Type: biochemical
Conditions: ROS1 25 pg/μL, FL-Peptide 22 substrate, three separate measurements
pIC50: −log10 of the molar value.

Solved cases below.
[
  {
    "compound": "c1ccc(CNc2ccc3ncc(-c4ccc(OCC[C@@H]5CCCN5)cc4)n3n2)cc1 [Example 6]",
    "system under test": "ROS1 (Homo sapiens)",
    "pIC50": "8.00 to 9.00"
  },
  {
    "compound": "c1ccc(CNc2ccc3ncc(-c4ccc(OC[C@@H]5CCCN5)cc4)n3n2)cc1 [Example 1]",
    "system under test": "ROS1 (Homo sapiens)",
    "pIC50": "8.00 to 9.00"
  },
  {
    "compound": "C[C@@H](Nc1ccc2ncc(-c3ccc(O[C@H]4C[C@H](N)C4)cc3)n2n1)c1cccc(F)c1 [Example 51]",
    "system under test": "ROS1 (Homo sapiens)",
    "pIC50": "8.00 to 9.00"
  }
]

Q: Tell me the measured pIC50 of C[C@@H](Nc1ccc2ncc(-c3ccc(OC4CNC4)cc3)n2n1)c1cccc(F)c1 [Example 25] , please.
Result: 8.00 to 9.00
